In this section we review reported IC50 values for a set of compounds.
System: cancer cell lines
Experiment: Cancer cell proliferation activity (CellTiterGlo, 72 h)
Format: cell-based
Conditions: Homo sapiens, NCI-H460, 72 h, NCIH460 cell line (lung), 72 h; read-out: IC50
Give the value in µM but do not write µM after it.

Example cases with answers are listed next.
                            chemical_smiles  recorded_value
0  CC(C)C[C@]1(CO)O[C@@H](n2cnc3c(N)nc(F)nc32)C[C@@H]1O            5.43
1  C[C@]1(CO)O[C@@H](n2cc(F)c(N)nc2=O)C[C@@H]1O             0.2

Field: next compound
Exam item: Requested read-out IC50, target or system cancer cell lines, entry Nc1nc(F)nc2c1ncn2[C@H]1C[C@H](O)[C@](CO)(CF)O1
Marked response: 3.37
